target: human TREM2/DAP12 fusion protein (human, UniProt O43914 41-113, limits assumed); experiment: cell-based or functional assay
Sequence (O43914 other isoform, or with tags, fused parts or gaps limits assumed): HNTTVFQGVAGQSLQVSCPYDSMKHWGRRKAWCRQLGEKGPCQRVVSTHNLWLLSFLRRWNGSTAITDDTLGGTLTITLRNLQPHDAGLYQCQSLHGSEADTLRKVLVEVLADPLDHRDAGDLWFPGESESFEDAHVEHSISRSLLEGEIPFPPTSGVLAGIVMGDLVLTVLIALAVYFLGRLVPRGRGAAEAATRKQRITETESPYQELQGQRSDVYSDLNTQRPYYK
Measured endpoint: Soluble IgG, fold over control IgG (17 nM IgG)
Record the result as a number with its unit.

Recorded Soluble IgG, fold over control IgG (17 nM IgG) (binder AL2p-61 huIgG1 (antibody, V domains shown) VH: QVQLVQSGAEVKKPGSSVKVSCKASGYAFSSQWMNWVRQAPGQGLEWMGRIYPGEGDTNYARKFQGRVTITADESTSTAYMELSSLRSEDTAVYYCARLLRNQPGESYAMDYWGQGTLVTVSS VL: GVVMTQTPLSLSVTPGQPASISCRSSQSLVHSNQYTYLHWYLQKPGQSPQLLIYKVSNRRSGVPDRFSGSGSGTDFTLKISRVEAEDVGVYYCSQSTRVPYTFGQGTKLEIKR ): 10.8 fold

Report Soluble IgG, fold over control IgG (17 nM IgG) for every entry below.
1. AL2p-37 (antibody, IgG1, V domains shown, Fab and IgG formats under one id; also called AL2p-37 huIgG1) VH: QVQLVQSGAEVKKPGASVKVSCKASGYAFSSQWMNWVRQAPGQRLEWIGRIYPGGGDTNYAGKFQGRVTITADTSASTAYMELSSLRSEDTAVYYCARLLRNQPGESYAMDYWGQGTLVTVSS VL: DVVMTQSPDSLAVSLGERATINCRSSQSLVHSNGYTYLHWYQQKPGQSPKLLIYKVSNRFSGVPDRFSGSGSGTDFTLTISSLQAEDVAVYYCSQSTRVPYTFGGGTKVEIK
2. AL2p huIgG1 (human mouse chimeric parental antibody) (antibody, V domains shown, Mouse variable region with human IgG1 Fc region; Fab and IgG formats under one id; also called chimeric parental AL2p antibody as huIgG1) VH: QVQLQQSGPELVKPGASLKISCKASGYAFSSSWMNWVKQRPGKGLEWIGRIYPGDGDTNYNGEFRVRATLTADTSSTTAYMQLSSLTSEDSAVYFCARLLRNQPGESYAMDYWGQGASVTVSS VL: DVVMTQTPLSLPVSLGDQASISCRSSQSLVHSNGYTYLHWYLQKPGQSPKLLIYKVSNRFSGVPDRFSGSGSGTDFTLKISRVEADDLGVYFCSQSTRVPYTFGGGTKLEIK
3. AL2p-47 huIgG1 (antibody, V domains shown) VH: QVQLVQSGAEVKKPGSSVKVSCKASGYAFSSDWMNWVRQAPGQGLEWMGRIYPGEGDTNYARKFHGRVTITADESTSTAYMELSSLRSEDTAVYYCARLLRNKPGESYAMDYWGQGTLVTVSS VL: DVVMTQTPLSLSVTPGQPASISCRTSQSLVHSNAYTYLHWYLQKPGQSPQLLIYKVSNRVSGVPDRFSGSGSGTDFTLKISRVEAEDVGVYYCSQSTRVPYTFGQGTKLEIKR

7.63 fold
4.51 fold
8.77 fold
